Values were extracted from BindingDB's records for doi:10.1074/jbc.M114.571216.

# system name: Oxysterol-binding protein 2 [1-181,275-916] (Homo sapiens, UniProt Q969R2)
pKd: −log10 of the molar value.
quantity kind: pKd

• C[C@H](CCCC(C)(C)O)[C@H]1CC[C@H]2[C@@H]3CC=C4C[C@@H](O)CC[C@]4(C)[C@H]3CC[C@]12C = 7.64

----------
# system name: Oxysterol-binding protein 2 (Homo sapiens, UniProt Q969R2)
# Sequence (Q969R2 whole entry): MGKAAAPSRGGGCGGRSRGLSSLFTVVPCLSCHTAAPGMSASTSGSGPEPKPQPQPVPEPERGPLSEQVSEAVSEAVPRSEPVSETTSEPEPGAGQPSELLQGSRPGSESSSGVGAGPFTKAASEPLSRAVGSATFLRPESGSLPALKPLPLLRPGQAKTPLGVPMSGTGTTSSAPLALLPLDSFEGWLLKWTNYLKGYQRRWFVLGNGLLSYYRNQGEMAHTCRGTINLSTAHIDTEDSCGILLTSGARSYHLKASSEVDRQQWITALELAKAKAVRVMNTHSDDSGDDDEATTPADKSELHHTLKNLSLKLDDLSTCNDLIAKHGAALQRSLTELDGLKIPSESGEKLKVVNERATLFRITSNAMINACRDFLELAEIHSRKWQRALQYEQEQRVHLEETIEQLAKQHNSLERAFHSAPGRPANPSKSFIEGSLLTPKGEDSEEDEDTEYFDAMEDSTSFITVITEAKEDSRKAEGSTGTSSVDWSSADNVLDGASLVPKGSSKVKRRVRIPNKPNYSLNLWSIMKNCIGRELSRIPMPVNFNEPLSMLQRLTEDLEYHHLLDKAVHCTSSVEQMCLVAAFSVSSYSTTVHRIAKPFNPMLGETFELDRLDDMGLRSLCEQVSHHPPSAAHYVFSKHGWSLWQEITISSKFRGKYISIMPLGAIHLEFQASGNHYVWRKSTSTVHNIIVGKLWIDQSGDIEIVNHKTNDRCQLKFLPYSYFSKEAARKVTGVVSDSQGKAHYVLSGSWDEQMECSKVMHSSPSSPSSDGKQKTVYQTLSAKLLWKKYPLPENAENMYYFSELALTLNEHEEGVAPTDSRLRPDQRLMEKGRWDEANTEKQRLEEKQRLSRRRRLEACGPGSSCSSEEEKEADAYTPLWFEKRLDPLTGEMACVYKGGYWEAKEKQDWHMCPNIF
quantity kind: Kd (nM)

- C[C@H](CCCC(C)(C)O)[C@H]1CC[C@H]2[C@@H]3CC=C4C[C@@H](O)CC[C@]4(C)[C@H]3CC[C@]12C: 17
